Assignment: determine reported protein stability index for the given variants.
B1: PPFIA4 (parent)
chain: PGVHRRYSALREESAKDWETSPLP

# Variants of: B1
# Test description: protein stability index of a GFP-peptide fusion (GPS, HEK-293T) (PSI 1-6); higher = more stable;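 note: lentivirally expressed fusions sorted by FACS into six bins by GFP to DsRed ratio, PSI derived from sequencing read proportions per bin multiplied by bin number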
# Details: c terminus: a fixed tail appended
API note: the answer field is a bare number with no unit suffix.

Problem: Give me measured protein stability index, please, for this variant: PGVHRRYSALREESAKDWEHSPLP [T20H]
Result: 4.47

Problem: Tell me its protein stability index given PGFHRRYSALREESAKDWETSPLP [V3F] as the entry.
Result: 4.02

Problem: Report measured protein stability index; entry is PGVHRRYKALREESAKDWETSPLP [S8K]
Result: 4.64

Problem: Please list protein stability index recorded for the variant PGVHRRYSALREESAKDWETIPLP [S21I]
Result: 3.39

Problem: Please look at this variant and report its protein stability index: PGVHRRYSALREESAKKWETSPLP [D17K]
Result: 3.36

Problem: Please supply the value of reported protein stability index for the item PGVHRFYSALREESAKDWETSPLP [R6F]
Result: 3.74

Problem: Let me know recorded protein stability index for PGVHRWYSALREESAKDWETSPLP [R6W] , thanks.
Result: 2.71

Problem: Return protein stability index for the following variant: PGVHRRYSALREESAKQWETSPLP [D17Q]
Result: 3.39

Problem: Complete the entry with protein stability index for PGVHRRYSALREFSAKDWETSPLP [E13F]
Result: 3.8

Problem: Assign protein stability index to the following record: PGVHRRYSALSEESAKDWETSPLP [R11S]
Result: 4.55

Problem: Give the value of protein stability index reported for the following: PGVHRRYSALRDESAKDWETSPLP [E12D]
Result: 4.05
